Please respond with reported inhibition at 20 µM for every item in the list.
Tested on: CSES2 human embryonic stem cells
Experiment: CellTiter-Glo luminescent cell viability screen, CSES2
Assay type: cell-based
Conditions: at 20 μM, pluripotent stem cells
Numbers only, in %.

molecule="C(=N\\C1CCC(CC2CCCCC2)CC1)/OC1CCOC1 (stereo not drawn)" units=% reported_result=77.6
molecule=O=C(Nc1ccccc1)n1cc(F)c(=O)[nH]c1=O units=% reported_result=84
molecule=CCOC(=O)CN1CC(=O)/C(=C\NNc2ccccc2)C1=O units=% reported_result=98.8
molecule=CC(=O)Oc1ccc(/C=C/c2ccc3c(c2)CCN3C)cc1 units=% reported_result=104
molecule=C/C(=N\O)NNc1ccc(Cl)cc1 units=% reported_result=102

Shift focus to the following entry.
### Prompt Can you share its inhibition at 20 µM? I mean this molecule: `Cc1oc2ccccc2c1/C=N/Nc1ccccc1`
### Response 98.6
